All figures here come from patent US20220112288A1.

molecular target: T1, huCD4-HIS (human, UniProt P01730 26-390, limits assumed); assay: ELISA binning; competitor ibalizumab; 100 ng/mL huCD4-HIS, anti-HIS HRP detection; background 45, max binding 3000000
T1 construct: not shown: HIS tag
Measured Ibalizumab ELISA binning signal accompanies every entry in the list below.
Write the number on its own, no unit after it.

Example entries begin here.
binder="75110_12H17A (antibody, V domains shown, Tested here as non-clonal hybridoma supernatant from AlivaMab Mouse Kappa mice (detected with anti-mouse Fc and anti-human kappa)) VH: EVQLVESGGGLVQPGGSLRLSCAASGFTFSDYWMSWVRQAPGKGLEWVANIKEDGNEKYYVDSVKGRFTISRDNAKNSLFLQMNSLRAEDTAVYYCAREGGQWLALDYWGQGALVTVSS VL: DIQMTQSPSSVSASVGDRVTITCRASQGISSWLAWYQQKPGKAPKFLISGASSLQSGVPSRFTGSGSGTDFTLTISSLQPEDFATYYCQQANSFPWTFGQGTKVEIK" assay_result=2.2e+06
binder="75110_07H07A (antibody, V domains shown, Tested here as non-clonal hybridoma supernatant from AlivaMab Mouse Kappa mice (detected with anti-mouse Fc and anti-human kappa)) VH: EVQVVESGGGLVQPGGSLRLSCAASGFTFSSYWMSWVRQAPGKGLEWVANIKEEGSEKYYVDSVKGRFTISRDNAKNSLYLQMNSLRAEDTAVYYCVREGGQWLALDYWGQGTLVTVSS VL: DIQMTQSPSSVSGSVGDRVTITCRASQGISSWLAWYQQKPGKAPKLLIFGASSLQSGVPSRFSGSGSGTDFTLTISSLQPEDFATYYCQQANSFPWTFGQGTKVQIK" assay_result=2.11e+06

Note: attention shifts to another entry.
Task item: Form field: reported Ibalizumab ELISA binning signal of 75110_01J09A (antibody, V domains shown, Tested here as non-clonal hybridoma supernatant from AlivaMab Mouse Kappa mice (detected with anti-mouse Fc and anti-human kappa)) VH: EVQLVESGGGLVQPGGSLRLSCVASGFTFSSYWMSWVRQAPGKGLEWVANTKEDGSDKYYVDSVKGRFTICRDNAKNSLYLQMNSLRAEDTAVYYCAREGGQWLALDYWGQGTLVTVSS VL: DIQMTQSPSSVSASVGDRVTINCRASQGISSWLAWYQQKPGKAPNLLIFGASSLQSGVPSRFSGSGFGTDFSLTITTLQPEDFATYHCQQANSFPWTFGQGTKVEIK
Reply: 1.26e+06
